assay-notes: Solubility pH 7
experimental-setup: pH 7, aqueous buffer
measurement-label: solubility (µg/mL)

Examples with answers:
INSERT INTO assay_data (molecule, number) VALUES
  ('COc1ccc(C[C@H](NC(=O)[C@@H](C)NC(=O)[C@H]2CC[C@H](O)CC2)C(=O)N[C@@H](CC2=CCCC2)C(=O)[C@@]2(C)CO2)cc1 [Compound C-1057]', 491),
  ('COc1ccc(C[C@H](NC(=O)[C@H](C)NC(=O)CC2CCOCC2)C(=O)N[C@@H](CC2CCCC2)C(=O)[C@@]2(C)CO2)cc1 [Compound C-1010]', 185),
  ('COc1ccc(C[C@H](NC(=O)[C@H](C)NC(=O)CN2CCS(=O)(=O)CC2)C(=O)N[C@@H](CC2=CCCCC2)C(=O)[C@@]2(C)CO2)cc1 [Compound C-1127]', 1520);

(P) Cc1ccc(C[C@H](NC(=O)[C@H](C)NC(=O)CN2CCOCC2)C(=O)N[C@@H](CC2=CCCCC2)C(=O)[C@@]2(C)CO2)cc1O [Compound C-1130]
(Q) C[C@H](NC(=O)CN1CCOCC1)C(=O)N[C@@H](Cc1ccc(N(C)C)cc1)C(=O)N[C@@H](Cc1ccccc1)C(=O)[C@@]1(C)CO1 [Compound C-1161]
So which one has the bigger solubility here, P or Q ? // output: label of the selected item
Q
(Q: 2110 µg/mL, P: 1140 µg/mL)
